procedureText: In vivo pharmacokinetics in plasma and hippocampus (LC-MS/MS)
Design: species or system C57BL mice
recordedConditions: mouse, hippocampus; C57BL mice, 3 mg/kg, po; read-out: Hippocampus MRT
observedProperty: MRT (h)
One number for each entry, in h.

In: GET /values?readout=MRT&item= O=C1c2cc(-c3nnc(C(F)F)o3)cnc2CN1[C@@H]1CCCC[C@H]1NC(=O)C(F)(F)C(F)(F)F [T-518]
Out: 1.33

----------
procedureText: In vivo pharmacokinetics in plasma and hippocampus (LC-MS/MS)
Design: species or system C57BL mice
recordedConditions: C57BL, mouse, hippocampus; 3 mg/kg, po; Fu,b 0.4; read-out: Effective Cmax in hippocampus
observedProperty: Cmax

In: GET /values?readout=Cmax&item= `O=C1c2cc(-c3nnc(C(F)F)o3)cnc2CN1[C@@H]1CCCC[C@H]1NC(=O)C(F)(F)C(F)(F)F`
Out: ~291 nM

Recorded values, source paper PMC8322070.
